# System: DU-145
# ASSAY_PROTOCOL: NCI tumour cell line growth inhibition, 48 h
Calls of active or inactive are those of the source. No stated cut-off is given here; in the data, active = GI50 up to about 1.1 µM and inactive = higher. Square brackets hold non-standard residues; d marks the D form. Peptide text beside a SMILES is read from it. * marks the point of attachment. X26 = COC1=CC(=O)N(C(=O)[C@@H](O*)C(C)C)[C@H]1Cc1ccccc1; NMeL = CN[C@@H](CC(C)C)C(=O)O; Hexanoyl = CCCCCC(=O)*
VALUE_TYPE: GI50

| COMPOUND | ENDPOINT_VALUE |
| --- | --- |
| Cc1ccc(OC(=O)N2C/C(=C\c3ccccc3)C(=O)/C(=C/c3ccccc3)C2)cc1 | > 100 µM (inactive) |
| COC(=O)c1ccccc1CC1Cc2ccc3c(c2C1)CCC3 (centres undefined) | 45.1 µM (inactive) |
| COC(=O)CCCCC/C(=C\C(=O)C(Cl)(Cl)Cl)OC | 25.5 µM (inactive) |
| Cc1cn(C2CC(ON3C(=O)c4ccccc4C3=O)C(CO)O2)c(=O)[nH]c1=O (centres undefined) | > 10 µM (inactive) |
| CC(C)(C)OC(=O)Nc1nnc(S(N)(=O)=O)s1 | > 100 µM (inactive) |
| NC1=NC(=O)/C(=C2\CCNC(=O)c3[nH]c(Br)cc32)N1 [HYMENIALDISINE] | 39.6 µM (inactive) |
| O=[N+]([O-])c1cccc([N+](=O)[O-])c1S(=O)(=O)c1ccccc1 | 6.05 µM (inactive) |
| CC1(C)OC2[C@@H](CO[C@@]3([C@H]4OC(C)(C)O[C@@H]4CO)OC(C)(C)O[C@@H]23)O1 (some centres undefined) | > 100 µM (inactive) |
| COC(=O)CCC1(O)C=CC(=O)C=C1 | 36.8 µM (inactive) |
| CC(C)/C(Cl)=N/OC(=O)Nc1ccc(Br)cc1 | 13.7 µM (inactive) |
| C=C[C@@]1(C)CC2CC[C@]3(C)C(C)=CC(=O)CC3[C@]2(C)CC1O (some centres undefined) | > 100 µM (inactive) |
| CC(=O)OCCN1c2ccccc2Sc2cnccc21 | > 10 µM (inactive) |
| C=C1C(=O)OC2C3C(=C)[C@@H](OC(C)=O)CC3C(C)=CC(OC(=O)C(C)(OC(C)=O)C(C)OC(C)=O)[C@@H]12 (some centres undefined) | 16.1 µM (inactive) |
| Nc1cccc(/C=C/CN2CCN(CCOC(c3ccccc3)c3ccccc3)CC2)c1 | 13.6 µM (inactive) |
| O=c1[nH]c(=O)n(CCOCP(=O)(O)O)nc1Br | > 100 µM (inactive) |
| CCCCCC(=O)N[C@H](C(=O)N[C@H](C(=O)N(C)[C@@H](CC(C)C)C(=O)N1CCC[C@H]1C(=O)N1CCC[C@H]1C(=O)O[C@H](C(=O)N1C(=O)C=C(OC)[C@@H]1Cc1ccccc1)C(C)C)C(C)C)C(C)C (Hexanoyl-VV[NMeL]PP-X26) | > 43.8 µM (inactive) |
| O=C1Nc2ccccc2/C1=N/N=c1\cccc[nH]1 | 21 µM (inactive) |
| Cc1cc(OCc2nnc3n2N=C(c2cc(F)c(Cl)cc2Cl)/C(=C/c2ccc(Cl)cc2)S3)ccc1Cl | 17.4 µM (inactive) |
| C=CCc1ccccc1CC1(OCC)OC(=O)c2ccccc21 (centres undefined) | > 100 µM (inactive) |
